- assay.system: T1, recombinant human DP IV, mutation R560A (human, UniProt P27487 37-766)
- T1 construct: range 37-766; Same Pichia construct as the wild type, single mutation by site-directed mutagenesis; also called mu 15 DP IV; mu 15
- T1 sequence (P27487 other isoform, or with tags, fused parts or gaps R560A R560A limits assumed): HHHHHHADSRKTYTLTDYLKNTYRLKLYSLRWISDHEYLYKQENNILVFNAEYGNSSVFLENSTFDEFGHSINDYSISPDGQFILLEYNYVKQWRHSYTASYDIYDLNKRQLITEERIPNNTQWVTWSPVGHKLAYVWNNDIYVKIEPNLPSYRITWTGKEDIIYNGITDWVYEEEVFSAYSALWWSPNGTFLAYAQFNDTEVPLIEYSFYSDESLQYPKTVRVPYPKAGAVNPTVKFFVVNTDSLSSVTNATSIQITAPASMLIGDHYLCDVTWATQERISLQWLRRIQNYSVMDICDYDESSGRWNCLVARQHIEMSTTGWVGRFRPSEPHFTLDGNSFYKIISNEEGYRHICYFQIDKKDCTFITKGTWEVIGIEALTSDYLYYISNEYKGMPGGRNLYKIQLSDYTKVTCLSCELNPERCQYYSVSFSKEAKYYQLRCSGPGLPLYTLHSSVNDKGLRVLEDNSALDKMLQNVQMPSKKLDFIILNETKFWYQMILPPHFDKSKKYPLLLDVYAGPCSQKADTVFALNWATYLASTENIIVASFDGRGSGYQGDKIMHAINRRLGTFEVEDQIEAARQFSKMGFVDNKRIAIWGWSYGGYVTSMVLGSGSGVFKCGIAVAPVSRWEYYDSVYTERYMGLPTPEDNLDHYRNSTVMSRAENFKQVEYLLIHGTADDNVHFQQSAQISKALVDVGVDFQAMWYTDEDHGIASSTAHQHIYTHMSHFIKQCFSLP
- experiment.summary: photometric assay, competition with the standard substrate GP-4NA
Where no end group is shown, it is not given here. The star is where a group is joined. Thia = thiazolidide, C1CN(*)CS1
Reported Ki is given for each of the following binders.
reported.metric: Ki

[[record]]
binder = "YAESTF-NH2 [YAESTF amide]"
meas_value = "1140 nM"

[[record]]
binder = "RRLSYSRRRFE-Thia (also: linkage of decapeptide to Glu not explained) [Transp 01 (RRLSYSRRRF-E-Thia)]"
meas_value = "76.9 nM"

